Kindly state IC50 for each of the entries shown.
# Tested on: A549
# assayProtocol: Antiproliferative activity against human A549 cells after 48 hrs by MTT assay
# Format: functional, cell-based
# assayConditions: A549, 48 h
Give bare numbers, in µM.

Please give IC50, item by item, for the list that follows.
1. COc1cc([C@@H]2c3cc4c(cc3[C@@H](O[C@@H]3O[C@@H]5CO[C@@H](C)O[C@H]5[C@H](O)[C@H]3O)[C@H]3COC(=O)[C@H]23)OCO4)cc(OC)c1O [ETOPOSIDE]
2. O=C(C[C@H](NC(=O)OCc1ccccc1)C(=O)N[C@H](COC(=O)c1ccc(Cl)cc1)Cc1ccccc1)OCc1ccccc1
3. COc1ccc(C(=O)OC[C@H](Cc2ccccc2)NC(=O)[C@H](CC(=O)OCc2ccccc2)NC(=O)OCc2ccccc2)cc1OC
4. O=C(C[C@H](NC(=O)OCc1ccccc1)C(=O)N[C@H](COC(=O)c1ccccc1)Cc1ccccc1)OCc1ccccc1

// result
19.8
29.9
47.6
46

###

# Test system: MGC-803
# assayProtocol: Antiproliferative activity against human MGC803 cells after 48 hrs by MTT assay
# Format: functional, cell-based
# assayConditions: MGC-803, 48 h
Kindly state IC50 for each of the entries shown.

// worked examples, IC50 included
smilesNotation	experimentalTarget	valueType	result
CC(=O)OC[C@H](Cc1ccccc1)NC(=O)[C@H](CC(=O)OCc1ccccc1)NC(=O)OCc1ccccc1	MGC-803	IC50	> 50 µM
O=C(C[C@H](NC(=O)OCc1ccccc1)C(=O)N[C@H](COC(=O)c1ccccc1Cl)Cc1ccccc1)OCc1ccccc1	MGC-803	IC50	> 50 µM
CCC(=O)OC[C@H](Cc1ccccc1)NC(=O)[C@H](CC(=O)OCc1ccccc1)NC(=O)OCc1ccccc1	MGC-803	IC50	> 50 µM

Please give IC50, item by item, for the list that follows.
1. CCC(=O)OC[C@H](Cc1ccccc1)NC(=O)[C@H](Cc1ccccc1)NC(=O)OCc1ccccc1
2. O=C(N[C@@H](Cc1ccccc1)C(=O)N[C@H](COC(=O)c1ccccc1Cl)Cc1ccccc1)OCc1ccccc1
3. Cc1ccccc1C(=O)OC[C@H](Cc1ccccc1)NC(=O)[C@H](CC(=O)OCc1ccccc1)NC(=O)OCc1ccccc1

// result
["> 50 µM", "43.1 µM", "> 50 µM"]

###

# Tested on: A549
# assayProtocol: Antiproliferative activity against human A549 cells after 48 hrs by MTT assay
# Format: functional, cell-based
# assayConditions: A549, 48 h
valueType: IC50

smilesNotation	IC50
CC(=O)OC[C@H](Cc1ccccc1)NC(=O)[C@H](CC(=O)OCc1ccccc1)NC(=O)OCc1ccccc1	> 50 µM

Please give IC50, item by item, for the list that follows.
1. COc1ccc(C(=O)OC[C@H](Cc2ccccc2)NC(=O)[C@H](Cc2ccccc2)NC(=O)OCc2ccccc2)cc1OC
2. O=C(N[C@@H](Cc1ccccc1)C(=O)N[C@H](COC(=O)c1ccccc1Cl)Cc1ccccc1)OCc1ccccc1

// result
> 50 µM
> 50 µM
